- Tested on: MO7e cells
- Assay Details: 6MP cytotoxicity in MO7e cells and CRISPR knock-outs
- Assay type: cell-based, Human
- Experimental Setup: Homo sapiens, Mo7e, 96 h, without Antimycin A; Fig. 6a, CellTiter Glo, triplicate
Property Measured: pIC50
Numbers only, as −log10 of the molar value.

Q) Find the recorded pIC50 belonging to Sc1ncnc2nc[nH]c12 [6MP, 6-mercaptopurine] and report it.
A) 3.87

---

- System: MO7e cells
- Assay Details: Etoposide cytotoxicity in MO7e cells and CRISPR knock-outs
- Format: cell-based, Human
- Experimental Setup: Homo sapiens, Mo7e, MO7e MPP1 KO; triplicate
Property Measured: pIC50
Give bare numbers, as −log10 of the molar value.

Q) Report pIC50 for COc1cc([C@@H]2c3cc4c(cc3[C@@H](O[C@@H]3O[C@@H]5CO[C@@H](C)O[C@H]5[C@H](O)[C@H]3O)[C@H]3COC(=O)[C@H]23)OCO4)cc(OC)c1O [Etoposide, etoposide] tested on MO7e cells.
A) 4.70
